Values from PubChem BioAssay (NCI)

tested on: SF-295 CNS; test: NCI tumour cell line growth inhibition, 48 h
recorded.metric: TGI

1) Cc1c(Cl)cccc1NC(=O)c1sc2nc3c(cc2c1N)CCCCC3 ... 10 µM
2) Oc1ccc(Cl)cc1C1=NC(/N=C\c2ccccc2)=NC(c2ccccc2)C1 (stereo not drawn) ... > 100 µM
3) NC(N)=NCCCC(NC(=O)OCCCCn1ccc(N)nc1=O)C(=O)O (stereo not drawn) ... > 100 µM

----------
tested on: OVCAR-8 ovarian; test: NCI tumour cell line growth inhibition, 48 h
recorded.metric: TGI

1. CC1(C)N=C(c2ccccn2)C(c2ccccn2)=NC1(C)C ... > 100 µM
2. O=C(O)C(=O)/C=C(\O)c1ccc(Br)cc1 ... > 100 µM
3. CC(=O)c1nc2ccccc2n1CC(=O)c1cccc(Cl)c1 ... > 100 µM
4. O=C(CCc1ccc(O)cc1)N/N=C/c1cc(Br)ccc1O ... > 100 µM
5. COC(=O)C1=C(C(=O)OC)SC2(S1)C(C(=O)OC)=C(C(=O)OC)Sc1c2ssc1=NC(C)(C)C ... 3.77 µM
6. C=CC1=C(C)C2=NC1=CC1=NC(=C(CC)/C1=C\O)C=C1N=C3C(=C1C)C(=O)[C@H](C(=O)OC)C3=C1NC(=C2)[C@@H](C)[C@@H]1CCC(=O)O ... > 100 µM
7. O=C(c1ccccc1)c1c(C(F)(F)F)n([O-])c2ccc(C(F)(F)F)cc2[n+]1=O ... 3.57 µM
